Reference source for all entries: patent US11180509B2

# test-protocol: In vivo pharmacokinetic test in rats (PO and IV)
# measurement-context: rat, plasma; SD rats, PO 100 mg/kg
experimental-readout: AUC(0-t) (µg·h/mL)
// note: answer is a bare numeric in µg·h/mL

Query: Please indicate AUC(0-t) recorded for C[C@@H]1CN2c3c(cc4c(N5C[C@H](C)SC5=O)noc4c3F)CC3(C(=O)NC(=O)NC3=O)[C@H]2[C@H](C)O1
Result: 509

###

# test-protocol: In vivo pharmacokinetic test in rats (PO and IV)
# measurement-context: rat, plasma; SD rats, PO 100 mg/kg; read-out: T1/2 (PO) (converted)
experimental-readout: half-life (h)
// note: answer is a bare numeric in h

Query: Please indicate half-life recorded for C[C@@H]1CN2c3c(cc4c(N5C[C@H](C)SC5=O)noc4c3F)CC3(C(=O)NC(=O)NC3=O)[C@H]2[C@H](C)O1
Result: 4.19

###

# test-protocol: In vivo pharmacokinetics test in mice (oral)
# Design: species or system CD-1 mice
# measurement-context: PO 10.0 mg/kg, plasma
Assign t1/2 to each entry below.
// note: answer is a bare numeric in h

Query: Please indicate t1/2 recorded for C[C@@H]1CN2c3c(cc4c(N5CCSC5=O)noc4c3F)CC3(C(=O)NC(=O)NC3=O)[C@H]2[C@H](C)O1
Result: 2.90

Query: Please indicate t1/2 recorded for C[C@@H]1CN2c3c(cc4c(N5C[C@@H](C)SC5=O)noc4c3F)CC3(C(=O)NC(=O)NC3=O)[C@H]2[C@H](C)O1
Result: 2.70

Query: Please indicate t1/2 recorded for COC[C@H]1CN(c2noc3c(F)c4c(cc23)CC2(C(=O)NC(=O)NC2=O)[C@H]2[C@H](C)O[C@H](C)CN42)C(=O)S1
Result: 2.51

Query: Please indicate t1/2 recorded for CC[C@@H]1CN(c2noc3c(F)c4c(cc23)CC2(C(=O)NC(=O)NC2=O)[C@H]2[C@H](C)O[C@H](C)CN42)C(=O)S1
Result: 1.59

###

# test-protocol: In vivo pharmacokinetic test in rats (PO and IV)
# measurement-context: rat, plasma; SD rats, IV 10 mg/kg; read-out: MRT (IV)
experimental-readout: MRT (h)
// note: answer is a bare numeric in h

Query: Please indicate MRT recorded for C[C@@H]1CN2c3c(cc4c(N5C[C@H](C)SC5=O)noc4c3F)CC3(C(=O)NC(=O)NC3=O)[C@H]2[C@H](C)O1 [Compound 2]
Result: 6.22

###

# test-protocol: In vivo pharmacokinetic test in rats (PO and IV)
# measurement-context: rat, plasma; SD rats, PO 100 mg/kg; read-out: MRT (PO)
experimental-readout: MRT (h)
// note: answer is a bare numeric in h

Query: Please indicate MRT recorded for C[C@@H]1CN2c3c(cc4c(N5C[C@H](C)SC5=O)noc4c3F)CC3(C(=O)NC(=O)NC3=O)[C@H]2[C@H](C)O1
Result: 11.1

###

# test-protocol: In vivo pharmacokinetic test in rats (PO and IV)
# measurement-context: rat, plasma; SD rats, PO 100 mg/kg
experimental-readout: Tmax
Include the unit after the number when you answer.

Query: Please indicate Tmax recorded for C[C@@H]1CN2c3c(cc4c(N5C[C@H](C)SC5=O)noc4c3F)CC3(C(=O)NC(=O)NC3=O)[C@H]2[C@H](C)O1 [Compound 2]
Result: 5.33 h
